# credit: PubChem BioAssay

Test system: Sonic hedgehog protein (Shh)
Assay: small-molecule binders of Shh protein, primary screen, biochemical, small-molecule microarray, 635/667 nm fluorescence (AID 1151);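 also: Shh protein binding to compounds spotted on small-molecule microarray slides; score combines spot fluorescence intensity with signal-to-noise across triplicate slides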
Conditions: small-molecule microarray binding, 635 nm fluorescence; higher = more signal
measured metric: composite z-score
Numbers only.

Worked examples, 5 molecules total:
C=C(C(=O)CC[C@@H](OC(C)=O)c1ccc(CO)o1)C(C)C
1.91
C=CCNC(=O)[C@H]1[C@@H]2C(=O)O[C@@H](c3ccccc3)[C@@H](c3ccccc3)N2[C@@H](c2ccc(O)cc2)[C@]12C(=O)N(C(=O)OCCOC)c1ccccc12
1.11
COCCCNC(=O)[C@@]1(Cc2ccccc2N=[N+]=[N-])N=C(c2ccc(OCCCO)cc2)O[C@H]1c1ccccc1
0.55
[N-]=[N+]=NCc1ccccc1[C@H]1OC(c2ccc(OCCCO)cc2)=N[C@@]1(CCS(=O)(=O)c1ccccc1)C(=O)NCC(O)CO (some centres not stated)
-0.276
CC(C)(C)OC(=O)CC[C@]1(C(=O)NCc2ccccc2)N=C(c2ccc(OCCCO)cc2)O[C@H]1c1ccccc1CN=[N+]=[N-]
1.36

For every listed record, write down its composite z-score.
1. O=C(CS)NCCCCCNC(=O)[C@@H]1C[C@@H]2C(=O)N3CCC[C@H]3C(=O)N2[C@@H]1c1cccc(OCCO)c1
2. COc1ccc(CCN2C(=O)[C@@]3(Cc4ccccc42)c2ccccc2C(=O)N(Cc2ccccc2OC)[C@H]3c2ccc(CO)cc2)cc1

1. 0.792
2. -0.384

* * *

System: XIP peptide (Xip251-270) binding
Assay: small-molecule binders of XIP peptide, primary screen, biochemical, small-molecule microarray, fluorescence 635/667 nm, 0.1 µg/mL protein (AID 1182)
Conditions: fluorescent protein binding, 635 nm, higher = more signal, called active from +8 up or from −8 down
The label depends only on composite z-score: yes (1) if it is at least -0.1, no (0) if it is smaller.

Please review the entries below; each comes with its answer.
CC(CO)N1C(=O)[C@@H]2[C@H]3C(=O)OCC=C[C@H]3OC23C=CCN(C(C)(C)C)C(=O)[C@@H]13 (stereo partly drawn)
no (0)
CC(C)[Si](C#C[Si](C(C)C)(C(C)C)C(C)C)(O[C@H](C)c1cn([C@H](CO)Cc2ccccc2)nn1)C(C)C
yes (1)
O=C1C[C@@](C(=O)NCCN2CCOCC2)(c2ccc([N+](=O)[O-])cc2)[C@@H](c2ccc(CO)cc2I)N1C1CCCCC1
yes (1)

Given the entry CN1C(=O)C2C=CC(C(O)c3cccc4ccccc34)N(N3CCCCC3)C2C1=O (stereo not drawn) , answer whether its composite z-score meets or surpasses -0.1.
yes (1)

Given the entry CCOC(=O)C[C@H]1[C@H](OC(=O)Cc2ccc3c(c2)OCO3)[C@@H](NC(=O)CC(C)C)c2cc(OCCCO)ccc2N1C(=O)Cc1ccc(OC)cc1 , answer whether its composite z-score meets or surpasses -0.1.
no (0)

Given the entry CN1C(=O)C2C=CC(C(O)c3cccc(O)c3)N(Nc3ccccc3)C2C1=O (stereo not drawn) , answer whether its composite z-score meets or surpasses -0.1.
no (0)

Given the entry C=C[C@@H](OC)[C@H](OC(=O)Nc1ccc(SC)cc1)c1ccc(O)c(F)c1 , answer whether its composite z-score meets or surpasses -0.1.
yes (1)

Given the entry CCC[C@@H]1C[C@@]1(CCC)[C@@H](NC(=O)OCc1ccccc1)c1ccc(-c2ccccc2)cc1 , answer whether its composite z-score meets or surpasses -0.1.
no (0)

* * *

Assignment: determine reported composite z-score for the given molecules.
Assay: small-molecule microarray binders of probe aWnt5a, primary screen, biochemical, biotinylated probe, 635/667 nm fluorescence (AID 1113);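 also: score merges 667 nm fluorescence intensity with signal-to-noise per printed feature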
Conditions: higher = more signal
Numbers only.

Worked examples, 4 molecules total:
C=CCC(OC(C)=O)[C@@H]1[C@@H](N(Cc2cc3ccccc3o2)C(=O)c2ccc(C)cc2)c2cc(OCCCO)ccc2N1C(=O)Cc1ccc(OC)cc1 (stereo not given in full)
0.0317
O=C1C2C=CC(C(O)c3ccc(Br)cc3)N(Nc3ccccc3F)C2C(=O)N1c1ccccc1 (stereo not given)
-0.0718
CC[C@H]1C2=C3C(CC[C@H]4C(OCc5ccc(F)cc5C(F)(F)F)OC[C@](C)([C@@H]34)N(C(=O)OC(C)(C)C)C2)C(COC)C1COC (stereo not given in full)
0.0768
NCCCCCNC(=O)[C@@H]1C[C@@H]2C(=O)NCC(=O)N2[C@@H]1c1cccc(OCCO)c1
-0.0202

For every listed record, write down its composite z-score.
1. C[N+](C)(C)CCCC[C@@H]1NC(=O)[C@H]2C[C@@H](C(=O)NCCCCCCN)[C@@H](c3ccc(O)cc3)N2C1=O
2. CC(C)[Si](C#CCCCC#N)(O[C@H](c1ccccc1)c1cn([C@H](CO)Cc2ccccc2)nn1)C(C)C
3. CC(C)N1C(=O)C[C@@](C(=O)NCCCN(C)C)(c2ccc([N+](=O)[O-])cc2)[C@H]1c1ccc(CO)cc1
4. COc1ccc([Si](C)(C)[C@@H]2[C@@H](CC(=O)N(CCO)Cc3ccccc3)O[C@]3(C(=O)N(Cc4cccc(N5C(=O)c6cccc7cccc5c67)c4)c4ccccc43)[C@H]2C)cc1
5. CCCCCCc1nc(-c2cc(C)c(OC)c(C)c2)c(C)c2c1[Si](C(C)C)(C(C)C)OC2

0.127
-0.0459
-0.113
-0.1
-0.0445

For every listed record, write down its composite z-score.
1. C=CC[C@]1(C(=O)NCCN2CCOCC2)N=C(c2ccc(OCCCO)cc2)O[C@H]1c1ccccc1CN=[N+]=[N-]
2. COCCCNC(=O)[C@@]1(Cc2ccccc2CN=[N+]=[N-])N=C(c2ccc(OCCCO)cc2)O[C@H]1c1ccccc1
3. COC(=O)c1cn(C[C@@H](Cc2ccccc2)NC(=O)N[C@H](CO)CCc2oc(C(C)=O)c(C(=O)OC)c2C(=O)OC)nn1
4. [N-]=[N+]=Nc1ccccc1[C@H]1OC(c2ccc(OCCCO)cc2)=N[C@@]1(Cc1ccccc1)C(=O)N1CCCCC1
5. [N-]=[N+]=NCc1ccccc1C[C@]1(C(N)=O)N=C(c2ccc(OCCCO)cc2)O[C@H]1c1ccccc1
6. [N-]=[N+]=Nc1ccccc1[C@@H]1OC(c2ccc(OCCCO)cc2)=N[C@]1(Cc1ccccc1)C(=O)NCC(O)CO (stereo not given in full)

1: 0.0023; 2: 0.0257; 3: 0.02; 4: 0.299; 5: 0.0003; 6: 0.0189

* * *

Experiment: mitochondrial membrane potential change in A549 cells, profiling panel, cell-based, JC-1 fluorescence, basal, 24 h, 100 nL (AID 1138);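 also: A549 lung adenocarcinoma cells under basal conditions with no added stimulus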
Conditions: higher = more signal
Ranges used to classify z-score: low group (below -0.1), middle group (-0.1 to below 0.6), high group (0.6 or more)

Please review the entries below; each comes with its answer.
CN(C)C(=O)C1N=C(c2ccc(OCCCO)cc2)N(c2ccccc2)O1 (stereo unspecified)
high group
N#Cc1ccc(NN2C(C(O)c3ccc(F)cc3)C=CC3C(=O)N(c4ccccc4)C(=O)C32)cc1 (stereo unspecified)
middle group
CCCCCCCCCCC(O)C1C=CC2C(=O)N(C)C(=O)C2N1NC(=O)OC(C)(C)C (stereo unspecified)
low group
CC(C)[Si](C#C[Si](C(C)C)(C(C)C)C(C)C)(O[C@H](C)c1cn([C@H](CO)Cc2ccccc2)nn1)C(C)C
middle group
O=c1n(-c2ccccc2)c(=O)n2n1CC(COc1ccccc1)=C([C@H](O)CCc1ccccc1)[C@@H]2CO
high group
O=C1OCCC=C[C@H]2OC34C=CCN(Cn5nnc6ccccc65)C(=O)[C@H]3N(CCCCCCO)C(=O)[C@@H]4C12 (stereo partly specified)
middle group
COC(=O)Cn1c(C(=O)N(C)C)cc2c1C[C@H]1CN(C(=O)c3ccccc3)[C@@](Cc3ccc(F)cc3)(C(=O)OC)[C@@H]21
middle group
C=C(COC)C(=O)CC[C@@H](OC(=O)c1cccnc1)c1ccc(OCCO)cc1
high group
CC(C)(C)OC(=O)CC[C@]1(C(=O)NCC(O)CO)N=C(c2ccc(OCCCO)cc2)O[C@H]1c1ccccc1 (stereo partly specified)
middle group
CCOC(=O)c1ccc(NC(=O)O[C@H]2[C@H](OC(=O)Nc3ccc4c(c3)OCO4)[C@@H](OC(=O)Nc3ccc4c(c3)OCO4)[C@@H](OC)O[C@@H]2CO)cc1
low group

Looking at COC(=O)[C@@]1(Cc2ccc(F)cc2)[C@H]2c3cc(C(=O)N4CCCC4)n(CCN4CNCC4=O)c3C[C@H]2CN1C(=O)c1ccccc1 , which class would you pick?
low group

Looking at CCOC(=O)C[C@H]1[C@H](OC(=O)Cc2ccc3c(c2)OCO3)[C@@H](NC(=O)CC(C)C)c2cc(OCCCO)ccc2N1C(=O)Cc1ccc(OC)cc1 , which class would you pick?
high group

Looking at CN(C)C(=O)[C@]1(CCS(=O)(=O)c2ccccc2)N=C(c2ccc(OCCCO)cc2)O[C@@H]1c1ccccc1N=[N+]=[N-] , which class would you pick?
high group

Looking at COCCCNC(=O)[C@@]1(Cc2ccccc2CN=[N+]=[N-])N=C(c2ccc(OCCCO)cc2)O[C@H]1c1ccccc1 , which class would you pick?
middle group

Looking at COCCOC(=O)N1C(=O)[C@@]2(c3cc(C#CC4=CCCCC4)ccc31)[C@H](C(=O)N1CCCCCCC1)[C@H]1C(=O)O[C@H](c3ccccc3)[C@H](c3ccccc3)N1[C@@H]2c1ccc(O)cc1 , which class would you pick?
middle group

Looking at C#CCN([C@@H](Cc1ccc(O)cc1)C(=O)OC)[C@@H](/C=C/C1CC1)[C@H](O)Cc1ccccc1 , which class would you pick?
low group

Looking at CCCCCCc1nc(-c2cc(C)c(OC)c(C)c2)c(C)c2c1[Si](C(C)C)(C(C)C)OC2 , which class would you pick?
low group

Looking at [N-]=[N+]=NCc1ccccc1C[C@]1(C(N)=O)N=C(c2ccc(OCCCO)cc2)O[C@H]1c1ccccc1 , which class would you pick?
high group

Looking at C=C(C)c1cc2c(c(CCCCCC)n1)[Si](C(C)C)(C(C)C)OC2 , which class would you pick?
low group
